testedOn: Eukaryotic translation initiation factor 4H (Homo sapiens) (UniProt Q15056)
experimentalProtocol: eIF4H binding inhibition – biochemical, uHTS, fluorescence polarization, translation initiation inhibitor project, primary screen (AID 2012);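 note: calls also rest on retests at 20 µM and on dose response follow-up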
conditionLabel: eIF4H fluorescence polarization binding assay; at 35 µM; stronger effect = higher value
The whole screen tested about 290,000 compounds, of which about 2,700 (0.93%) were called active. For the sample, actives were picked, then their nearest neighbours and some compounds at random.
endpoint: inhibition (%)
Reply with just the number (in %).

[
  {
    "compound": "CC/C(=N\\NC(=O)c1ccccc1O)c1c(O)n(Cc2ccccc2)c(=O)[nH]c1=O",
    "unitLabel": "%",
    "inhibition": 43.2
  },
  {
    "compound": "COc1ccc(CNCCc2ccc3c(c2)OCO3)c(OC)c1OC",
    "unitLabel": "%",
    "inhibition": 18.8
  },
  {
    "compound": "CC(=O)Nc1ccc(C(=O)C(Cc2ccccc2)N(C)C)cc1 (stereo not given)",
    "unitLabel": "%",
    "inhibition": -9.3
  },
  {
    "compound": "O=C(Cc1ccc(Cl)cc1)NCCN1CCN(C(=O)Cc2ccc(Cl)cc2)CC1",
    "unitLabel": "%",
    "inhibition": -0.4
  }
]

Then there is this compound:
# lookup: inhibition of O=C(N/N=C/c1c(O)n(C2CC2)c(=S)[nH]c1=O)c1ccccc1
10.1

###

testedOn: Eukaryotic translation initiation factor 4H (Homo sapiens)
experimentalProtocol: eIF4H binding inhibition – biochemical, uHTS, fluorescence polarization, translation initiation inhibitor project, primary screen (AID 2012);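 note: calls also rest on retests at 20 µM and on dose response follow-up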
conditionLabel: eIF4H fluorescence polarization binding assay; at 35 µM
Out of some 290,000 compounds screened, about 2,700 (0.93%) were called active. No rule for the calls is given here. The full list was thinned out, with actives kept by preference.
Classes to choose from: active, inactive

Please review the following examples before continuing.
[
  {
    "molecule": "O=C1NC(=O)N(Cc2ccco2)C(=O)/C1=C\\c1cccn1CCOc1ccccc1",
    "testedOn": "Eukaryotic translation initiation factor 4H (Homo sapiens)",
    "groupLabel": "inactive"
  },
  {
    "molecule": "CN(C)c1ccc(/C=C2\\CC3C4CC=C5CC(O)CCC5(C)C4CCC3(C)C2=O)cc1 (stereo not given)",
    "testedOn": "Eukaryotic translation initiation factor 4H (Homo sapiens)",
    "groupLabel": "active"
  },
  {
    "molecule": "Cc1ccc(S(=O)(=O)N(C)c2ccc(C(=O)NCC3(N(C)C)CCCCC3)cc2)cc1",
    "testedOn": "Eukaryotic translation initiation factor 4H (Homo sapiens)",
    "groupLabel": "inactive"
  },
  {
    "molecule": "COc1ccc(CN2C(=O)NC(=O)/C(=C\\c3ccc(OC)c(OC)c3OC)C2=O)cc1",
    "testedOn": "Eukaryotic translation initiation factor 4H (Homo sapiens)",
    "groupLabel": "active"
  },
  {
    "molecule": "COc1ccc(N2C(=O)/C(=C/c3ccco3)C(=O)NC2=S)cc1",
    "testedOn": "Eukaryotic translation initiation factor 4H (Homo sapiens)",
    "groupLabel": "active"
  }
]

Proceed to the following item.
GET /call?item= c1ccc(CCNC2CCCCCC2)cc1 returns the recorded outcome of this test.
inactive

###

testedOn: Eukaryotic translation initiation factor 4H (Homo sapiens) (UniProt Q15056)
experimentalProtocol: eIF4H binding inhibition – biochemical, uHTS, fluorescence polarization, translation initiation inhibitor project, primary screen (AID 2012);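 note: calls also rest on retests at 20 µM and on dose response follow-up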
conditionLabel: eIF4H fluorescence polarization binding assay; confirmation average; at 20 µM; stronger effect = higher value
In all, about 290,000 compounds went through this assay and about 2,700 (0.93%) were called active. The list comes from a sample in which actives are over-represented; it also holds close analogues and randomly drawn compounds.
Each entry below carries its reported inhibition.
Reply with just the number (in %).

These solved cases illustrate the format of a correct answer.
[
  {
    "chemicalSmiles": "CC1(C)Cc2c(C#N)c(N3CCNCC3)nc(-c3ccco3)c2CS1",
    "unitLabel": "%",
    "val": 77.5
  },
  {
    "chemicalSmiles": "COc1cccc(N2C(=O)NC(=O)/C(=C\\c3ccc([N+](=O)[O-])s3)C2=O)c1",
    "unitLabel": "%",
    "val": 101
  },
  {
    "chemicalSmiles": "O=C1NC(=O)N(c2ccccc2)C(=O)/C1=C/c1ccc([N+](=O)[O-])s1",
    "unitLabel": "%",
    "val": 22.6
  },
  {
    "chemicalSmiles": "Cc1cc(/C=C2/C(=O)NC(=O)N(Cc3ccco3)C2=O)c(C)n1-c1ccc(C(=O)O)cc1",
    "unitLabel": "%",
    "val": 42.8
  }
]

# lookup: inhibition of O=C(N/N=C/c1c(O)n(Cc2ccccc2)c(=O)[nH]c1=O)c1ccccc1
67.6

###

testedOn: Eukaryotic translation initiation factor 4H (Homo sapiens)
experimentalProtocol: eIF4H binding inhibition – biochemical, uHTS, fluorescence polarization, translation initiation inhibitor project, primary screen (AID 2012);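 note: calls also rest on retests at 20 µM and on dose response follow-up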
conditionLabel: eIF4H fluorescence polarization binding assay; at 35 µM
Screen size: about 290,000 compounds; about 2,700 (0.93%) were called active. How the calls were made is not given here. Many of the other results were omitted from the sample, so actives are more common in it than they were.
Classes to choose from: True (active), False (inactive)

Please review the following examples before continuing.
[
  {
    "compound": "O=C1NC(=O)N(c2ccccc2)C(=O)/C1=C/c1ccc([N+](=O)[O-])s1",
    "groupLabel": "False"
  },
  {
    "compound": "Cc1cccc(NC(=O)N2CC3CC(C2)c2cccc(=O)n2C3)c1 (configuration not stated)",
    "groupLabel": "False"
  },
  {
    "compound": "COc1ccc(N=Cc2c(O)n(C)c(=O)[nH]c2=O)cc1",
    "groupLabel": "False"
  },
  {
    "compound": "COc1ccc2[nH]c3c(c2c1)CCN[C@H]3C",
    "groupLabel": "False"
  },
  {
    "compound": "CN(C)S(=O)(=O)c1cc(C(=O)N2CCC(C(=O)O)(c3ccccc3)CC2)ccc1Cl",
    "groupLabel": "False"
  },
  {
    "compound": "O=c1[nH]c(=O)n(CCc2ccccc2)c(O)c1/C=N/N1CCOCC1",
    "groupLabel": "False"
  },
  {
    "compound": "CCN1CCN(Cc2cc(OC)c3c(c2)OCO3)CC1",
    "groupLabel": "False"
  },
  {
    "compound": "O=c1[nH]c(=O)n(Cc2ccccc2)c(O)c1/C=N/Nc1c(F)c(F)c(F)c(F)c1F",
    "groupLabel": "True"
  },
  {
    "compound": "Cc1ccc(C2CN(C)CC2C(=O)c2ccc(F)cc2)cc1 (configuration not stated)",
    "groupLabel": "False"
  },
  {
    "compound": "CC(=NCC1CCCO1)c1c(O)n(-c2ccccc2)c(=O)[nH]c1=O (configuration not stated)",
    "groupLabel": "False"
  }
]

GET /call?item= Cc1nc2ccccc2c(=O)n1-c1ccc(Cl)cc1Cl returns the recorded outcome of this test.
False

GET /call?item= O=C(N/N=C/c1c(O)n(Cc2ccccc2)c(=O)[nH]c1=O)c1ccccc1 returns the recorded outcome of this test.
True

###

testedOn: Eukaryotic translation initiation factor 4H (Homo sapiens)
experimentalProtocol: eIF4H binding inhibition – biochemical, uHTS, fluorescence polarization, translation initiation inhibitor project, primary screen (AID 2012);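 note: calls also rest on retests at 20 µM and on dose response follow-up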
conditionLabel: eIF4H fluorescence polarization binding assay; at 35 µM; stronger effect = higher value
The whole screen tested about 290,000 compounds, of which about 2,700 (0.93%) were called active. The sample holds actives, similar compounds and a random draw of the others, so the mix is not that of the screen.
Each entry below carries its reported inhibition.
Reply with just the number (in %).

These solved cases illustrate the format of a correct answer.
[
  {
    "chemicalSmiles": "CN1CCC(OC(=O)c2cccc(F)c2)CC1",
    "unitLabel": "%",
    "val": -5.1
  },
  {
    "chemicalSmiles": "COc1cccc(OC)c1C(=O)NC(=S)N1C[C@H]2C[C@H](C1)c1cccc(=O)n1C2",
    "unitLabel": "%",
    "val": -6.5
  },
  {
    "chemicalSmiles": "O=C1NC(=O)N(CCc2ccc(F)cc2)C(=O)/C1=C/C=C/c1ccccc1",
    "unitLabel": "%",
    "val": 4.2
  }
]

Then there is this compound:
# lookup: inhibition of CCCCC(=O)N/N=C/c1c(O)n(CCC2=CCCCC2)c(=O)[nH]c1=O
26.1

// provenance: PubChem BioAssay AID2012
